# MEASUREMENT DESCRIPTION: LA concentration in porcine intestinal fluid collected via in vivo ultrafiltration probes, UPLC-MS/MS
# CONDITION DESCRIPTION: pig, oral 1 mg LA; fragments detected, all concentrations below the LLOQ; UPLC-MS/MS
QUANTITY MEASURED: Concentration of LA fragments in duodenal and jejunal samples

Recorded results for 3 substances are shown here.
SUBSTANCE	RESULT
H-Val-Leu-Val-Gln-Pro-OH [Fragment 4]	< 170 nM
H-VLVQPG-OH [Fragment 2]	< 160 nM
H-GGVLVQP-OH [Fragment 3]	< 150 nM

Proceed to the following item.
Query: Requested read-out: Concentration of LA fragments in duodenal and jejunal samples. Entry: H-GVLVQPG-OH [Fragment 1]
Response: < 150 nM

----------
# MEASUREMENT DESCRIPTION: LA concentration in porcine intestinal fluid collected via in vivo ultrafiltration probes, UPLC-MS/MS
# CONDITION DESCRIPTION: female, Yorkshire cross, pig, intestinal fluid (distal duodenum), po, 1 mg
Ends that are not written are not given here.
QUANTITY MEASURED: level at time molar at 4 h (nM)
Quick reminder: number only, in nM, skip the unit.

Query: Using the record for GGVLVQPG [LA, Larazotide acetate] , report its level at time molar at 4 h.
Response: 30

----------
# MEASUREMENT DESCRIPTION: LA concentration in porcine intestinal fluid collected via in vivo ultrafiltration probes, UPLC-MS/MS
# CONDITION DESCRIPTION: female, Yorkshire cross, pig, intestinal fluid, distal duodenum, po, 1 mg
Ends that are not written are not given here.
QUANTITY MEASURED: level at time molar at 4 h (nM)
Number in nM, nothing else.

Query: Entry GGVLVQPG [LA, Larazotide acetate] : reported level at time molar at 4 h = ?
Response: 30

----------
# MEASUREMENT DESCRIPTION: LA concentration in porcine intestinal fluid collected via in vivo ultrafiltration probes, UPLC-MS/MS
# CONDITION DESCRIPTION: female, Yorkshire cross, pig, intestinal fluid, distal duodenum, po, 1 mg, LA concentration (µM), oral 1 mg LA human clinical formulation, 4h, case number 1, single measurement
Ends that are not written are not given here.
QUANTITY MEASURED: level at time molar at 4 h (µM)
Write it as a number; the unit µM goes unstated.

Query: Reported level at time molar at 4 h for GGVLVQPG [LA, Larazotide acetate] : what is it?
Response: 0.03

----------
# MEASUREMENT DESCRIPTION: LA concentration in porcine intestinal fluid collected via in vivo ultrafiltration probes, UPLC-MS/MS;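 note: pigs aged 6–8 weeks and weighing 15–20 kg, intestinal fluid sampled through surgically implanted ultrafiltration probes whose placement was checked post mortem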
# CONDITION DESCRIPTION: female, Yorkshire cross, pig, intestinal fluid, proximal jejunum, po, 1 mg
Ends that are not written are not given here.
QUANTITY MEASURED: level at time molar at 2 h (nM)
Please respond with the number in nM and leave the unit unwritten.

Query: Looking for the measured level at time molar at 2 h of GGVLVQPG [LA, Larazotide acetate] , can you help?
Response: 250
